system.name: Muscarinic acetylcholine receptor M5 (Homo sapiens, UniProt P08912)
Sequence (P08912 whole entry): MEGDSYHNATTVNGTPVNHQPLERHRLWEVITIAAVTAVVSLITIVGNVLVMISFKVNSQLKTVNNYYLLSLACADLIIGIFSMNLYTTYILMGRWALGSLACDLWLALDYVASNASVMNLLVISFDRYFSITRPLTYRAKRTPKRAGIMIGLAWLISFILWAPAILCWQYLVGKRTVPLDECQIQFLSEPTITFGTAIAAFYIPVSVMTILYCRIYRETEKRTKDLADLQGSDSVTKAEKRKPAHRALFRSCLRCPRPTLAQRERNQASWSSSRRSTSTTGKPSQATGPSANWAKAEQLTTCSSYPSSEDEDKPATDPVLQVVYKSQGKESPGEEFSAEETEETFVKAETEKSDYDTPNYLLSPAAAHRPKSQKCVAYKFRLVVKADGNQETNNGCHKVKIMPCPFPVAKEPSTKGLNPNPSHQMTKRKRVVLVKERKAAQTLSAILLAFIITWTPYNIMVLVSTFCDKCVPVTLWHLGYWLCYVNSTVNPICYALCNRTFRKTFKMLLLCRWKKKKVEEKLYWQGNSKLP
method: Antagonist activity at human muscarinic M5 receptor expressed in CHO cells in the presence of acetylcholine by calcium mobilisation assay
pIC50: −log10 of the molar value.
Please mark YES if the recorded pIC50 is equal to or greater than 7, and NO if it falls below.

The examples below pair each entry with its known result.
# compound, category
records = [
    ("Cc1ccc(S(=O)(=O)N2CC[C@@H](C(=O)Nc3ccc4scnc4c3)C2)cn1", "NO"),
    ("O=C(Nc1ccc2scnc2c1)[C@@H]1CCN(S(=O)(=O)c2ccc3c(c2)CCO3)C1", "YES"),
]

Moving on to another compound below.
Challenge: Textbook exercise: given the entry O=C(Nc1ccc2scnc2c1)C1CCN(S(=O)(=O)c2ccc3c(c2)CCO3)C1 (stereo not drawn) , state whether its pIC50 is greater than or equal to 7.
Response given: YES
